Please go through the items and note down their PHA assay IC50.
# assayed.system: T1, human IL-12 (human, UniProt P29459 23-219; P29460 23-328)
# T1 sequence (looked up) 1: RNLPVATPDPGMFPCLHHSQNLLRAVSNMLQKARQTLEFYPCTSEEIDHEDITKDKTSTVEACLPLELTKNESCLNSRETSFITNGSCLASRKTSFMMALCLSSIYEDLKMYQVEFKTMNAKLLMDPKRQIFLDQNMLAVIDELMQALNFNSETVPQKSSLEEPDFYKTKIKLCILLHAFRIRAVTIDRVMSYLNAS
# T1 sequence (looked up) 2: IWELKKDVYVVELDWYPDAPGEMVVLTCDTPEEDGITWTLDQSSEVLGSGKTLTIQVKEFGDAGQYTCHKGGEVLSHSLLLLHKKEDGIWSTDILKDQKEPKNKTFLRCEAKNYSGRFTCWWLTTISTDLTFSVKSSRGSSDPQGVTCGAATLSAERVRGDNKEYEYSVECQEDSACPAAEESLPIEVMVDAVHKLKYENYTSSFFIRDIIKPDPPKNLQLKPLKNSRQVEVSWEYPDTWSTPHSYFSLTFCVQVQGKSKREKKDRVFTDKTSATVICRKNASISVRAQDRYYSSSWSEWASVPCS
# method: cell-based or functional assay
Give bare numbers, in nM.

Sample records with PHA assay IC50:
1. 149-6 (scFv, V domains shown, scFv) VH: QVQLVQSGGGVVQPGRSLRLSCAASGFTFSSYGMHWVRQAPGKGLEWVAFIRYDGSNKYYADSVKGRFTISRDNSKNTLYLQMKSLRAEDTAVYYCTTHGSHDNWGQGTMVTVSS VL: SYVLTQPPSVSGTPGQRVTISCSGGRSNIVSNTVKWYQQLPGTAPKLLIYGNDQRPSGVPDRFSGSKSGTSASLAITGVQAEDEADYYCQSYDRGFTGSRVFGTGTKVTVLG | 2
2. 103-7 (scFv, V domains shown, scFv) VH: QVQLVQSGGGVVQPGRSLRLSCAASGFTFSSYGMHWVRQAPGKGLEWVAFIRYDGSNKYYADSVKGRFTISRDNSKNTLYLQMKSLRAEDTAVYYCTTHGSHDDWGQGTMVTVSS VL: SYVLTQPPSVSGTPGQRVTISCSGGRSNIGSNTVKWYQQLPGTAPKLLIYGNDQRPSGVPDRFSGSKSGTSASLAITGVQAEDEADYYCQSYDRDFTGTRVFGTGTKVTVL | 1
3. 103-8 & 2 (scFv, V domains shown, scFv) VH: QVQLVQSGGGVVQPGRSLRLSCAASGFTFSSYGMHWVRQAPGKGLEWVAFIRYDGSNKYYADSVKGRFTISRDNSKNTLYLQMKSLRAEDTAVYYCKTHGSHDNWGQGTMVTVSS VL: SYVLTQPPSVSGTPGQRVTISCSGGRSNIGSNTVKWYQQLPGTAPKLLIYGNDQRPSGVPDRFSGSKSGTSASLAITGVQAEDEADYYCQTYDKGFTGSSVFGTGTKVTVL | 1.5

Note: attention shifts to another entry.
Query: Given the entry 136-15 (scFv, V domains shown, scFv) VH: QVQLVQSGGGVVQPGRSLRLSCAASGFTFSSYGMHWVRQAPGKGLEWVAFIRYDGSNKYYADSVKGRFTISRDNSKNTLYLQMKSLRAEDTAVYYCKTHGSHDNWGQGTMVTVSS VL: SYVLTQPPSVSGTPGQRVTISCSGSRSNIGSNTVKWYQQLPGTAPKLLIYGNDQRPSGVPDRFSGSKSGTSASLAITGVQAEDEADYYCQTYDKGFTGSSVFGTGTKVTVLG , report its measured PHA assay IC50.
Result: 2
